test: qHTS assay to identify small molecule antagonists of the thyroid receptor (TR) signaling pathway (AID 743065); further: nearly all actives have a fitted effect of over 55% in size
condition_description: GH3.TRE-Luc, T3-stimulated luciferase inhibition, 23.5 h; series mostly up to 70.3 µM
Results filed as inconclusive are left out. Activity calls are given as the source filed them. The call rests on the fitted dose curve; in most records, active means well fitted inhibition curve with a large enough effect in the repeat runs; inconclusive means weak or mixed curves; inactive means no such curve, though single readings can be large or run the other way.
I would appreciate it if you answered using one of these outcomes: active, inactive

# example entries with known answers
                              smiles_record  category_label
0  C[C@]12CC[C@@H]3c4ccc(OC(=O)N(CCCl)CCCl)cc4CC[C@H]3[C@@H]1CC[C@@H]2O        inactive
1                CN(C)CCc1c[nH]c2ccc(O)cc12        inactive

q: Would you mind telling me which call this test gave `O=C(CCl)Nc1ccccc1` ?
a: active

q: Would you mind telling me which call this test gave `Nc1ccccc1C(=O)Oc1ccc2ccccc2c1` ?
a: inactive

q: Would you mind telling me which call this test gave `CC(C)OS(C)(=O)=O` ?
a: inactive

----------
test: A CellTox Green Cytotoxicity Assay to monitor cytotoxicity in HEK293 cells - 8 hour (AID 1224884); further: nearly all actives have a fitted effect of over 35% in size
condition_description: CellTox Green fluorescence; series mostly up to 76.8 µM
Records with an inconclusive call do not appear. Active and inactive are the calls of the source. Calls come from the whole dose curve; as a rule, active = well fitted activation curve with a large enough effect in the repeat runs; inconclusive = weak or mixed curves; inactive = flat fitted curve, though single readings scatter.
I would appreciate it if you answered using one of these outcomes: 1 for active, 0 for inactive

In [3]: df
Out[3]:
                              smiles_record  category_label
0                O=C(O)c1cc[c]([Hg][Cl])cc1               0
1  Cc1cc(C(F)(C(F)(F)F)C(F)(F)F)ccc1NC(=O)c1cccc(I)c1C(=O)NC(C)(C)CS(C)(=O)=O               0
2                  c1ccc2c(c1)[nH]c1cnccc12               0
3  CS(=O)(=O)c1ccc(C(=O)C2C(=O)CCCC2=O)c([N+](=O)[O-])c1               1

q: Would you mind telling me which call this test gave `ClCc1ccccc1CCl` ?
a: 0

q: Would you mind telling me which call this test gave `CCCSP(=O)(OCC)SCCC` ?
a: 0

q: Would you mind telling me which call this test gave `COc1ccc(/C(=C/C(=O)N2CCOCC2)c2ccc(Cl)cc2)cc1OC` ?
a: 0

q: Would you mind telling me which call this test gave `FC(Cl)(Cl)Cl` ?
a: 0

----------
test: qHTS RealTime-Glo MT Cell Viability Assay in HepG2 cells - 0 hour (AID 1224889); further: nearly all actives have a fitted effect of over 50% in size
condition_description: RealTime-Glo luminescence; series mostly up to 76.8 µM
Records with an inconclusive call do not appear. Active and inactive are the calls of the source. Calls follow the shape of the dose curve; as a rule, active = well fitted cell-killing curve with a large enough effect in the repeat runs; inconclusive = weak or mixed curves, or effect the other way; inactive = flat fitted curve, though single readings scatter.
I would appreciate it if you answered using one of these outcomes: active, inactive

# example entries with known answers
compound	category_label
CC(=O)OC1(c2ccccc2)CCN(CCc2ccccc2)CC1	inactive
Cc1ccc(C(=O)Cl)cc1	inactive
Oc1ccc2ccc3cccc4ccc1c2c34	inactive

q: Would you mind telling me which call this test gave `Fc1ccc(Oc2ccnc3cc(Cl)cc(Cl)c23)cc1` ?
a: inactive

q: Would you mind telling me which call this test gave `CC(C)CBr` ?
a: inactive

q: Would you mind telling me which call this test gave `Cc1ccc(OP(=O)(Oc2ccccc2)Oc2ccccc2)cc1` ?
a: inactive

q: Would you mind telling me which call this test gave `O=C(O)c1cc[c]([Hg][Cl])cc1` ?
a: inactive

q: Would you mind telling me which call this test gave `CN(C)C1CSSSC1` ?
a: inactive

q: Would you mind telling me which call this test gave `O=C(Nc1ccc2[nH]ccc2c1)c1cc2cc(F)ccc2n1Cc1cccc(F)c1` ?
a: inactive

q: Would you mind telling me which call this test gave O=c1c(C2CC(c3ccc(-c4ccc(Br)cc4)cc3)Cc3ccccc32)c(O)sc2ccccc12 (stereo not drawn) ?
a: active

q: Would you mind telling me which call this test gave `CC[C@H](C)[C@H]1O[C@]2(C=C[C@@H]1C)C[C@@H]1C[C@@H](C/C=C(\C)[C@@H](O[C@H]3C[C@H](OC)[C@@H](O[C@H]4C[C@H](OC)[C@@H](O)[C@H](C)O4)[C@H](C)O3)[C@@H](C)/C=C/C=C3\CO[C@@H]4[C@H](O)C(C)=C[C@@H](C(=O)O1)[C@]34O)O2` ?
a: inactive

q: Would you mind telling me which call this test gave `CC(C)(C)c1ccc(CSc2cnn(C(C)(C)C)c(=O)c2Cl)cc1` ?
a: inactive

q: Would you mind telling me which call this test gave `SCc1ccco1` ?
a: inactive

----------
test: A CellTox Green Cytotoxicity Assay to monitor cytotoxicity in HEK293 cells - 32 hour (AID 1224881); further: nearly all actives have a fitted effect of over 40% in size
condition_description: CellTox Green fluorescence; series mostly up to 76.8 µM
Results filed as inconclusive are left out. Calls of active or inactive are those of the source. Calls come from the whole dose curve; as a rule, active = well fitted activation curve with a large enough effect in the repeat runs; inconclusive = weak or mixed curves; inactive = flat fitted curve, though single readings scatter.
measured_endpoint: outcome

In [3]: df
Out[3]:
                              smiles_record  endpoint_result
0                 Nc1ccc([N+](=O)[O-])cc1Cl         inactive
1  O=C(NC(=O)c1c(F)cccc1F)Nc1cc(Cl)c(OC(F)(F)C(F)F)c(Cl)c1         inactive
2                          N#C/C=C/c1ccccc1         inactive

----------
test: qHTS RealTime-Glo MT Cell Viability Assay in HEK293 cells - 24 hour (AID 1224886); further: nearly all actives have a fitted effect of over 50% in size
condition_description: RealTime-Glo luminescence; series mostly up to 76.8 µM
Inconclusive results are not listed. Calls of active or inactive are those of the source. Calls come from the whole dose curve; as a rule, active = well fitted cell-killing curve with a large enough effect in the repeat runs; inconclusive = weak or mixed curves, or effect the other way; inactive = flat fitted curve, though single readings scatter.
I would appreciate it if you answered using one of these outcomes: label 1 = active, label 0 = inactive

# example entries with known answers
>>> df
                                   molecule  category_label
0                              N#Cc1ccccc1N         label 0
1  COC12CC[C@@]3(C[C@@H]1C(C)(O)C(C)(C)C)[C@H]1Cc4ccc(O)c5c4[C@@]3(CCN1CC1CC1)[C@H]2O5 (some centres not stated)         label 1
2  Clc1ccc(CO/N=C(\Cn2ccnc2)c2ccc(Cl)cc2Cl)c(Cl)c1         label 1
3  CCCCCCCCCCCCCCC(Br)C(=O)O (configuration not stated)         label 0
4             Nc1ccccc1C(=O)OC/C=C/c1ccccc1         label 1
5  CC(=[OH+])/C=C(/C)[O-].CC(=[OH+])/C=C(\C)[O-].CC(=[OH+])/C=C(\C)[O-].[Al]         label 0
6           CCCCOCN(C(=O)CCl)c1c(CC)cccc1CC         label 0
7                 COc1ccc([N+](=O)[O-])cc1O         label 0

q: Would you mind telling me which call this test gave `CCc1nn(C)c(C(=O)NCc2ccc(C(C)(C)C)cc2)c1Cl` ?
a: label 1

q: Would you mind telling me which call this test gave `O=[N+]([O-])c1cc([N+](=O)[O-])c2ccccc2c1` ?
a: label 0

q: Would you mind telling me which call this test gave CCSC(C)CC1CC(=O)C(/C(CC)=N/OC/C=C/Cl)=C(O)C1 (configuration not stated) ?
a: label 0

----------
test: qHTS assay to identify small molecule agonists of the hypoxia (HIF-1) signaling pathway - cell viability counter screen (AID 1224844); further: nearly all actives have a fitted effect of over 50% in size
condition_description: HRE-bla ME-180 viability, CellTiter-Glo luminescence, 17 h; series mostly up to 76.8 µM
Description: National Center for Advancing Translational Sciences [NCATS] NIH Chemical Genomics Center [NCGC] U.S. Environmental Protection Agency [EPA] National Institutes of Environmental Health Sciences [NIEHS] National Toxicology Program [NTP] U.S. Food and Drug Administration [FDA] Hypoxia-inducible factor-1 (HIF-1) is the major hypoxia-regulated transcription factor that controls cellular responses to low oxygen concentration. […]
Records with an inconclusive call do not appear. Activity calls are given as the source filed them. Calls follow the shape of the full dose curve.
I would appreciate it if you answered using one of these outcomes: t for active, f for inactive

molecule	category_label
CC(C)OS(C)(=O)=O	f
C1CCC2CCCCC2C1 (centres undefined)	f
C[C@]12CC[C@@H]3c4ccc(OC(=O)N(CCCl)CCCl)cc4CC[C@H]3[C@@H]1CC[C@@H]2O	f
CN(C)S(=O)(=O)N(SC(F)(Cl)Cl)c1ccccc1	t
COc1ccc(/C(=C/C(=O)N2CCOCC2)c2ccc(Cl)cc2)cc1OC	f
CC(=O)OC1(c2ccccc2)CCN(CCc2ccccc2)CC1	f
[Hg+2].[I-].[I-]	t
O=c1[nH]c2ccccc2n1C1CCN(CCCC(c2ccc(F)cc2)c2ccc(F)cc2)CC1	t

q: Would you mind telling me which call this test gave `CC[C@H](C)[C@H]1O[C@]2(C=C[C@@H]1C)C[C@@H]1C[C@@H](C/C=C(\C)[C@@H](O[C@H]3C[C@H](OC)[C@@H](O[C@H]4C[C@H](OC)[C@@H](O)[C@H](C)O4)[C@H](C)O3)[C@@H](C)/C=C/C=C3\CO[C@@H]4[C@H](O)C(C)=C[C@@H](C(=O)O1)[C@]34O)O2` ?
a: t

q: Would you mind telling me which call this test gave `C[C@]12CC[C@H]3[C@@H](CCC4=CC(=O)CC[C@@]43C)[C@@H]1CC[C@@H]2O` ?
a: f

q: Would you mind telling me which call this test gave `CC(C)CCCCCOC(=O)c1ccccc1C(=O)OCCCCCC(C)C` ?
a: f

q: Would you mind telling me which call this test gave `N#Cc1ccccc1Cl` ?
a: f

q: Would you mind telling me which call this test gave `C[C@@H]1O[C@@H](O[C@@H]2C=C3CC[C@@H]4[C@H](CC[C@]5(C)[C@@H](c6ccc(=O)oc6)CC[C@]45O)[C@@]3(C)CC2)[C@H](O)[C@H](O)[C@H]1O` ?
a: t

q: Would you mind telling me which call this test gave `c1ccc2c(c1)[nH]c1cnccc12` ?
a: f
